Below, each entry is listed alongside its reported self-splicing fitness (ln).
test: self-splicing fitness, log relative to wild type (ln ratio); higher = more splicing; Tetrahymena group I intron in knt gene, E. coli kanamycin selection, DiMSum; sequences stand for … in CUCUCU…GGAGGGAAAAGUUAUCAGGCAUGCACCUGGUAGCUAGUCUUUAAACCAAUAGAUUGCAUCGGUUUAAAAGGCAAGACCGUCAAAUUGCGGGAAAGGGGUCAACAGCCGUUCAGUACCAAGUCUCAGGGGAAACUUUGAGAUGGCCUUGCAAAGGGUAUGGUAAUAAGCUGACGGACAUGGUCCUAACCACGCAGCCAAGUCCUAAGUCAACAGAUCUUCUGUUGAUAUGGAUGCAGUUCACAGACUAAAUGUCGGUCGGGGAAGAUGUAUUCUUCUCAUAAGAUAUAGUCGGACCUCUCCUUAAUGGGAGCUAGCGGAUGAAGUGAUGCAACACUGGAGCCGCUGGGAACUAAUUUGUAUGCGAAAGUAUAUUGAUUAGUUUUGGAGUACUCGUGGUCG; conditions: 37 °C;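 also: selection with 25 µg/mL kanamycin versus none on LB agar overnight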
measured.property: self-splicing fitness (ln)

1. UAUAAGCAAUAUUACGUAUA: -0.986
2. CUACAGCAAUAUUACGGAAG: -0.751
3. UGCUAGCAAUAUUACGUUCA: 0.0245
4. GGUCAGCAAUAUUACGAUUA: -0.0575
5. ACGGAGCAAUAUUACGUUAG: -2.5
6. ACGGAGCAAUAUUACGACCA: -1.08
7. CUGCAGCAAUAUUACGGGUC: -3.07
8. GACGAGCAAUAUUACGUAUA: -0.524
9. GCUCAGCAAUAUUACGUGCU: -0.582
10. UUAGAGCAAUAUUACGGGGU: -2.06
11. CAAAAGCAAUAUUACGGGAU: -3.04
12. AAGUAGCAAUAUUACGCCAA: -1.55
13. UCCUAGCAAUAUUACGGUCU: -0.444
14. UAGCAGCAAUAUUACGAUUU: -0.879
15. GAGGAGCAAUAUUACGGAGA: -2.25
16. AACCAGCAAUAUUACGUUAC: -2.52

* * *

assay: self-splicing fitness, log relative to wild type (ln ratio); higher = more splicing; Tetrahymena group I intron in knt gene, E. coli kanamycin selection, DiMSum; sequences stand for … in CUCUCU…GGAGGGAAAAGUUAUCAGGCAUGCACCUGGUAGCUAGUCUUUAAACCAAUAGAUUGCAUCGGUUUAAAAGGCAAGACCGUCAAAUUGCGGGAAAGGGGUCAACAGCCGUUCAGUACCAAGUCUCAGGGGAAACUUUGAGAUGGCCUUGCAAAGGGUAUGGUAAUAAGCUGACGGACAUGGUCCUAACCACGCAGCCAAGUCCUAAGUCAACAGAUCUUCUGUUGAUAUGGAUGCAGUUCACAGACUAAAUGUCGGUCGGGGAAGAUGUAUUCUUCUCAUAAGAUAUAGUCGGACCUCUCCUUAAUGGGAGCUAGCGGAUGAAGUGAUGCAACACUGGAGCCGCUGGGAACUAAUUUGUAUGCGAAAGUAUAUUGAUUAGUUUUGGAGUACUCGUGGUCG; conditions: 37 °C
Rule: self-splicing fitness (ln) of -0.6 or more gives Criterion met; anything lower gives Criterion not met.

1. UCCGAGCAAUAUUACGACGG: Criterion met
2. CGGAAGCAAUAUUACGUAAA: Criterion not met
3. CGCGAGCAAUAUUACGAGAG: Criterion not met
4. GCUAAGCAAUAUUACGCAAU: Criterion not met
5. CACUAGCAAUAUUACGAGCU: Criterion not met
6. GGUGAGCAAUAUUACGUAUG: Criterion met
7. CGGGAGCAAUAUUACGUGGA: Criterion not met
8. ACAUAGCAAUAUUACGUAAA: Criterion not met
9. CCAGAGCAAUAUUACGACCG: Criterion not met
10. GCUCAGCAAUAUUACGGUCA: Criterion met
11. CUUAAGCAAUAUUACGCGGC: Criterion not met
12. GACAAGCAAUAUUACGCACA: Criterion met
13. CUUAAGCAAUAUUACGUGCG: Criterion met
14. AAUCAGCAAUAUUACGUUCC: Criterion not met
